B1: MEF2-activating motif and SAP domain-containing transcriptional regulator, residues 170 to 204; numbered along this chain, Q6ZN01 (parent)
chain: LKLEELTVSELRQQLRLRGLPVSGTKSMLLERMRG

- Variants of: B1
- EXPERIMENT NOTES: abundance fitness (aPCA) (normalised: wild type 0, dead -1); higher = more abundant; growth selection in yeast, the domain comes from the species named
- APPLIED CONDITIONS: Homo sapiens
Entry class follows abundance fitness: low = under -0.4, middle = from -0.4 up to -0.2, high = -0.2 and over

**Query** Which bin should I file "L3F" under?
**Result** high

**Query** Which bin should I file "S9M" under?
**Result** high

**Query** Which bin should I file "V22C" under?
**Result** middle
